# maps each entry to its IC50
Biological target: Beta-3 Adrenergic Receptor (Homo sapiens (Human))
Experiment: HTRF cAMP antagonist assay (IC50 determination)
Details: CHO-K1 cells stably expressing recombinant receptor; antagonism of isoproterenol at EC90; cAMP readout
Provide only the numeric value, understood in µM.

Check out these entries, answers already filled in.
{"columns": ["molecule", "observable", "unit.name", "measured"],
 "data": [
  ["CS(=O)(=O)c1cccc(OC[C@@H](O)CNC2COC3(CCN(S(=O)(=O)c4ccccn4)CC3)C2)c1 (stereo partly drawn)", "IC50", "µM", 0.329],
  ["CCC(C)(C)NCc1ccc(-c2cccc(S(=O)(=O)N3CCC4(CC3)C[C@H](NC[C@H](O)COc3cccc(S(=O)(=O)C5(CO)CC5)c3)CO4)c2)cc1", "IC50", "µM", 0.0211],
  ["CS(=O)(=O)c1cccc(OC[C@@H](O)CNC2COC3(CCN(S(=O)(=O)c4ccc(-c5ccccc5)s4)CC3)C2)c1 (stereo partly drawn)", "IC50", "µM", 0.0174],
  ["CS(=O)(=O)c1cccc(OC[C@H](O)CN[C@H]2COC3(CCN(S(=O)(=O)c4ccc5ccccc5c4)CC3)C2)c1", "IC50", "µM", 0.242],
  ["NCc1ccc(-c2ccc(F)c(S(=O)(=O)N3CCC4(CC3)C[C@H](NC[C@H](O)COc3cccc(S(=O)(=O)C5(CO)CC5)c3)CO4)c2)cc1", "IC50", "µM", 0.0295]
]}

// switching to the query molecule
Checklist item: IC50 tested on Beta-3 Adrenergic Receptor (Homo sapiens (Human)), entry O=S(=O)(CCO)c1cccc(OC[C@@H](O)CNC2COC3(CCN(S(=O)(=O)c4ccc5ccccc5c4)CC3)C2)c1 (stereo partly drawn) , value?
0.0333

* * *

# maps each entry to its IC50
Biological target: Beta-3 Adrenergic Receptor (Homo sapiens (Human), UniProt P13945)
Sequence (P13945 whole entry, species assumed): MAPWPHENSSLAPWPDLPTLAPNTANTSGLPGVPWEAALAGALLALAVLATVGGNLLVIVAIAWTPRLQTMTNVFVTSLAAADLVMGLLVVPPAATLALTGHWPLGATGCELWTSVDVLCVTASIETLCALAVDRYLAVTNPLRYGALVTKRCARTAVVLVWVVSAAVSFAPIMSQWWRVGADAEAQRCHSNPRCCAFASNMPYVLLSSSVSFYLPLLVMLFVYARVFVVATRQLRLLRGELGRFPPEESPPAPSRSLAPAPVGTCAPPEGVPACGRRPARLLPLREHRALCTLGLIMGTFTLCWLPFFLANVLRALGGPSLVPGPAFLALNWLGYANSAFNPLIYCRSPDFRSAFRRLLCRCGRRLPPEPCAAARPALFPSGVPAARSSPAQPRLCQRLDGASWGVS
Test: HTRF cAMP antagonist assay (IC50 determination)
Details: CHO-K1 cells stably expressing recombinant receptor; antagonism of isoproterenol at EC90; cAMP readout
Procedure: HTRF cAMP assays were performed according to manufacturer's instructions (Cisbio, cAMP Dynamic 2 Assay Kit; #62AM4PEJ). CHO-K1 cells stably expressing recombinant receptor were harvested and suspended in warm PBS to make a 300,000 cells/mL stock. […] Compounds were dissolved and serially diluted (5-fold) in DMSO to generate a 10-point dose response stock. […] The EC90 for isoproterenol, a beta-adrenergic agonist, was determined in separate experiments using standard methods to measure agonist potencies. […]
Provide only the numeric value, understood in nM.

Check out these entries, answers already filled in.
{"columns": ["compound", "unit.name", "IC50"],
 "data": [
  ["CS(=O)(=O)c1cccc(OC[C@@H](O)CN[C@H]2COC3(CCN(S(=O)(=O)c4ccc5ccccc5c4)CC3)C2)c1 [Compound 3]", "nM", 5.47],
  ["COCCCS(=O)(=O)c1cccc(OC[C@@H](O)CN[C@H]2COC3(CCN(S(=O)(=O)c4ccc5ncccc5c4)CC3)C2)c1 [Compound 132]", "nM", 739]
]}

Checklist item: IC50 tested on Beta-3 Adrenergic Receptor (Homo sapiens (Human), UniProt P13945), entry O=S(=O)(c1cccc(OC[C@@H](O)CN[C@H]2COC3(CCN(S(=O)(=O)c4cnc5cn[nH]c5c4)CC3)C2)c1)C1CC1 [Compound 319] , value?
16.5
